TEST PROTOCOL: Particle size distribution by laser particle size analyzer Mastersizer 3000
Format: physicochemical
CONDITION DESCRIPTION: dispersed in n-heptane
Parameter threshold = 20 μm. Response is Criterion met when Particle size D50 of API meets or exceeds it, else Criterion not met.

Answered examples (3):
MOLECULE: Cn1cnc(Cn2c(=O)[nH]/c(=N\c3cc4cn(C)nc4cc3Cl)n(Cc3cc(F)c(F)cc3F)c2=O)n1 [API 13]
CATEGORY LABEL: Criterion met
--
MOLECULE: Cn1cnc(Cn2c(=O)[nH]/c(=N\c3cc4cn(C)nc4cc3Cl)n(Cc3cc(F)c(F)cc3F)c2=O)n1 [API 1]
CATEGORY LABEL: Criterion met
--
MOLECULE: Cn1cnc(Cn2c(=O)[nH]/c(=N\c3cc4cn(C)nc4cc3Cl)n(Cc3cc(F)c(F)cc3F)c2=O)n1 [API 15]
CATEGORY LABEL: Criterion not met

Next item in the queue.
Q. // inclusive: Particle size D50 of API at least 20 μm? input: Cn1cnc(Cn2c(=O)[nH]/c(=N\c3cc4cn(C)nc4cc3Cl)n(Cc3cc(F)c(F)cc3F)c2=O)n1 [API 10]
A. Criterion met

###

TEST PROTOCOL: Particle size distribution by laser particle size analyzer Mastersizer 3000
Type: physicochemical
CONDITION DESCRIPTION: dispersed in n-heptane
Please go through the items and note down their Particle size D50 of API.
Answers are plain numbers, in μm.

Field: example entries. Status: answers known.
COMPOUND: Cn1cnc(Cn2c(=O)[nH]/c(=N\c3cc4cn(C)nc4cc3Cl)n(Cc3cc(F)c(F)cc3F)c2=O)n1 [API 3]
OUTCOME MEASURE: Particle size D50 of API
ASSAY RESULT: 8.4
--
COMPOUND: Cn1cnc(Cn2c(=O)[nH]/c(=N\c3cc4cn(C)nc4cc3Cl)n(Cc3cc(F)c(F)cc3F)c2=O)n1 [API 5]
OUTCOME MEASURE: Particle size D50 of API
ASSAY RESULT: 18.6
--
COMPOUND: Cn1cnc(Cn2c(=O)[nH]/c(=N\c3cc4cn(C)nc4cc3Cl)n(Cc3cc(F)c(F)cc3F)c2=O)n1 [API 6]
OUTCOME MEASURE: Particle size D50 of API
ASSAY RESULT: 8.9

Sure, the documented Particle size D50 of API for Cn1cnc(Cn2c(=O)[nH]/c(=N\c3cc4cn(C)nc4cc3Cl)n(Cc3cc(F)c(F)cc3F)c2=O)n1 [API 14] is 20.5

###

TEST PROTOCOL: Particle size distribution by laser particle size analyzer Mastersizer 3000
Assay type: physicochemical
CONDITION DESCRIPTION: dispersed in n-heptane
OUTCOME MEASURE: Particle size D90 of API (μm)
One number for each entry, in μm.

Field: example entries. Status: answers known.
COMPOUND: Cn1cnc(Cn2c(=O)[nH]/c(=N\c3cc4cn(C)nc4cc3Cl)n(Cc3cc(F)c(F)cc3F)c2=O)n1 [API 6]
ASSAY RESULT: 15.6

COMPOUND: Cn1cnc(Cn2c(=O)[nH]/c(=N\c3cc4cn(C)nc4cc3Cl)n(Cc3cc(F)c(F)cc3F)c2=O)n1 [API 4]
ASSAY RESULT: 46.7

COMPOUND: Cn1cnc(Cn2c(=O)[nH]/c(=N\c3cc4cn(C)nc4cc3Cl)n(Cc3cc(F)c(F)cc3F)c2=O)n1 [API 3]
ASSAY RESULT: 10.2

Next up:
Sure, the documented Particle size D90 of API for Cn1cnc(Cn2c(=O)[nH]/c(=N\c3cc4cn(C)nc4cc3Cl)n(Cc3cc(F)c(F)cc3F)c2=O)n1 [API 5] is 34.2
